Listed here are compounds together with their documented ABCG2 TD50.
system: Ig-MXP3 cells; test: Direct cytotoxicity; assay type: cell-based

Example results:
O=C(c1ccoc1)N1CCN(c2cc(-c3ccco3)nc3cc(-c4cccc(Cl)c4)nn23)CC1 [Compound 53] ... 10.80 µM
CC(=O)N1CCN(c2cc(-c3ccco3)nc3cc(-c4cccc(Cl)c4)nn23)CC1 [Compound 87] ... >100 µM
COc1ccc(-c2cc3nc(-c4ccccc4)cc(N4CCN(C(=O)c5ccoc5)CC4)n3n2)cc1 [Compound 36] ... >100 µM
O=C(c1ccoc1)N1CCN(c2cc(-c3ccoc3)nc3cc(-c4ccccc4)nn23)CC1 [Compound 61] ... 18.30 µM
O=C(c1ccoc1)N1CCN(c2cc(-c3ccco3)nc3cc(-c4ccco4)nn23)CC1 [Compound 52] ... >100 µM
COc1cccc(-c2cc(N3CCN(C(=O)c4ccoc4)CC3)n3nc(-c4ccccc4)cc3n2)c1 [Compound 65] ... 67.80 µM
CC(=O)N1CCN(c2cc(-c3ccco3)nc3cc(-c4ccccc4)nn23)CC1 [Compound 74] ... >100 µM
COc1ccc(-c2cc3nc(-c4ccco4)cc(N4CCN(C(=O)c5ccoc5)CC4)n3n2)cc1 [Compound 57] ... >100 µM
O=C(c1cccnc1)N1CCN(c2cc(-c3ccccc3)nc3cc(-c4cccc(Cl)c4)nn23)CC1 [Compound 20] ... 10.30 µM
O=C(c1ccncc1)N1CCN(c2cc(-c3ccccc3)nc3cc(-c4cccc(Cl)c4)nn23)CC1 [Compound 21] ... 28.30 µM

Prompt: Given the compound Cc1nc2cc(-c3cccc(Cl)c3)nn2c(N2CCN(C(=O)c3ccco3)CC2)c1C [Compound 9] , write its reported ABCG2 TD50.
Completion: 47.40 µM

Prompt: Note ABCG2 TD50 for the compound shown: COc1cccc(-c2cc3nc(-c4ccco4)cc(N4CCN(C(C)=O)CC4)n3n2)c1 [Compound 88]
Completion: >100 µM

Prompt: Name the recorded ABCG2 TD50 of the item O=C(c1ccoc1)N1CCN(c2cc(-c3cccnc3)nc3cc(-c4cccc(Cl)c4)nn23)CC1 [Compound 30] in your answer.
Completion: 5.77 µM

###

Target: UniProt:Q9UNQ0
Sequence (Q9UNQ0 1-655): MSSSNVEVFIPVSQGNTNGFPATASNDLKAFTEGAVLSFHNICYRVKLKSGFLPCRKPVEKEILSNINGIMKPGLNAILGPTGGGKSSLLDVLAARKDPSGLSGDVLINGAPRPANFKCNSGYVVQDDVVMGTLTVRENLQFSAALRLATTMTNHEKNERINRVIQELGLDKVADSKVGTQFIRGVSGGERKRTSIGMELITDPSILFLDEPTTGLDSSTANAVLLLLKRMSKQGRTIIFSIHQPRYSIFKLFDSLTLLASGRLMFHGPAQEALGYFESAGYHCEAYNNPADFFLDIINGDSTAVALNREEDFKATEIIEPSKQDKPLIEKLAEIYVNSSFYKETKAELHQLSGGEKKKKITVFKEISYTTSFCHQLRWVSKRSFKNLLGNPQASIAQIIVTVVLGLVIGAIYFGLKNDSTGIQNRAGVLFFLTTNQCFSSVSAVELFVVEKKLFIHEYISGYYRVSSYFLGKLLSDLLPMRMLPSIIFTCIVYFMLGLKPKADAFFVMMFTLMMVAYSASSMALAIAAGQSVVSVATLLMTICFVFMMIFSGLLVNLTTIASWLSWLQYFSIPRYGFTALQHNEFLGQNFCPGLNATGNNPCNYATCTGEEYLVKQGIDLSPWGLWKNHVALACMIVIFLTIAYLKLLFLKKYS
Test: Chemoreversal secondary assay
observable: EC50 (µM)
Answer in µM, number only, no unit symbol.

Prompt: Find the measured EC50 of CN(C)C(=O)CCSC(SCCC(=O)O)c1cccc(/C=C/c2ccc3ccc(Cl)cc3n2)c1 (stereo not shown) [Compound 5, MK571, reference compound] and report it.
Completion: 57.4

###

target: ABCB1 (Homo sapiens)
Sequence (P08183 whole entry): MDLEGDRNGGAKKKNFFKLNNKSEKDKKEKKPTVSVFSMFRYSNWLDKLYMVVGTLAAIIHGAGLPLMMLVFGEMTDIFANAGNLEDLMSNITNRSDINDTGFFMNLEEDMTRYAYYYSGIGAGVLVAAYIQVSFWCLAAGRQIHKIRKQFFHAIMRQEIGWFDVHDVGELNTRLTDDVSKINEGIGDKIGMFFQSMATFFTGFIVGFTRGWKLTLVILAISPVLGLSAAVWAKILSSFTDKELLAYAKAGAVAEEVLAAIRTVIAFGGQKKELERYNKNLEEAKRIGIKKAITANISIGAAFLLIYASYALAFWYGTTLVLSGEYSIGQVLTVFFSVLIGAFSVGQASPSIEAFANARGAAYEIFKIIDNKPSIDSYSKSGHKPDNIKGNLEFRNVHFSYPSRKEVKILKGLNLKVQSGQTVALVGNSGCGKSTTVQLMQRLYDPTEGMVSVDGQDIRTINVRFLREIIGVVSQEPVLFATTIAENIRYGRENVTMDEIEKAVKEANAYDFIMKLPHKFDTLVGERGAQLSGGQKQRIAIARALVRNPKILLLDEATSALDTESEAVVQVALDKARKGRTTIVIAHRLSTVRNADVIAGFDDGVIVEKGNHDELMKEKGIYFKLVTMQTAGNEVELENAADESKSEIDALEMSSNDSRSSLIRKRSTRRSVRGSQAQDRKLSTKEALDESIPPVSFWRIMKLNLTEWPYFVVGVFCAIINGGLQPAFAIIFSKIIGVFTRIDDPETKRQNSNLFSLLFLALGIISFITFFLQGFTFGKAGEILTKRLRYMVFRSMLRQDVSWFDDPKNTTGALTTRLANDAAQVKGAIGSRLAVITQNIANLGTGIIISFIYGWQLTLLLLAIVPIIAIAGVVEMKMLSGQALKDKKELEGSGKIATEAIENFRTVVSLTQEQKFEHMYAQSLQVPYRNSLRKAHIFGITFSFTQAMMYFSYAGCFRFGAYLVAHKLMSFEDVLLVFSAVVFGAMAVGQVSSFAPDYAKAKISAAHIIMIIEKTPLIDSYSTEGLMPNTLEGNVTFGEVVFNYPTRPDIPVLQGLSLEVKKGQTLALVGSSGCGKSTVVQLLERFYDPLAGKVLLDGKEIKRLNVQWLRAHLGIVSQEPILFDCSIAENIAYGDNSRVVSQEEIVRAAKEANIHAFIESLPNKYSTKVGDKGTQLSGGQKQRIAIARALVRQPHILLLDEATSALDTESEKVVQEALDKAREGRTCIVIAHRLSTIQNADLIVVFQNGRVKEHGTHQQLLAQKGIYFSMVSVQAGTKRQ
observable: IC50

Prompt: System ABCB1 (Homo sapiens). Read-out IC50. Item CN(C)C(=O)CCSC(SCCC(=O)O)c1cccc(/C=C/c2ccc3ccc(Cl)cc3n2)c1 (stereo not shown) [Compound 5, MK571, reference compound] . Report value.
Completion: > 50 µM

###

tested on: Jurkat-DNR cells
observable: ABCB1 TD50

Before answering, review these 5 worked examples.
O=C(c1ccoc1)N1CCN(c2cc(-c3cccnc3)nc3cc(-c4cccc(Cl)c4)nn23)CC1 [Compound 30] ... 5.33 µM
COc1cccc(C(=O)N2CCN(c3cc(-c4ccccc4)nc4cc(-c5cccc(Cl)c5)nn34)CC2)c1 [Compound 15] ... >100 µM
COc1cccc(-c2cc(N3CCN(C(=O)c4ccoc4)CC3)n3nc(-c4ccccc4)cc3n2)c1 [Compound 65] ... 5.77 µM
O=C(c1ccoc1)N1CCN(c2cc(-c3ccco3)nc3cc(-c4cccc(Cl)c4)nn23)CC1 [Compound 53] ... 8.53 µM
O=C(c1ccco1)N1CCN(c2cc(-c3ccccc3)nc3cc(-c4cccc(Cl)c4)nn23)CC1 [Compound 8] ... 6.77 µM

Now look at this one.
Prompt: Answer with the recorded ABCB1 TD50 of COc1ccc(-c2cc3nc(-c4ccco4)cc(N4CCN(C(=O)c5ccoc5)CC4)n3n2)cc1 [Compound 57] only.
Completion: >100 µM

###

Target: ABCG2 (Homo sapiens)
Sequence (Q9UNQ0 1-655): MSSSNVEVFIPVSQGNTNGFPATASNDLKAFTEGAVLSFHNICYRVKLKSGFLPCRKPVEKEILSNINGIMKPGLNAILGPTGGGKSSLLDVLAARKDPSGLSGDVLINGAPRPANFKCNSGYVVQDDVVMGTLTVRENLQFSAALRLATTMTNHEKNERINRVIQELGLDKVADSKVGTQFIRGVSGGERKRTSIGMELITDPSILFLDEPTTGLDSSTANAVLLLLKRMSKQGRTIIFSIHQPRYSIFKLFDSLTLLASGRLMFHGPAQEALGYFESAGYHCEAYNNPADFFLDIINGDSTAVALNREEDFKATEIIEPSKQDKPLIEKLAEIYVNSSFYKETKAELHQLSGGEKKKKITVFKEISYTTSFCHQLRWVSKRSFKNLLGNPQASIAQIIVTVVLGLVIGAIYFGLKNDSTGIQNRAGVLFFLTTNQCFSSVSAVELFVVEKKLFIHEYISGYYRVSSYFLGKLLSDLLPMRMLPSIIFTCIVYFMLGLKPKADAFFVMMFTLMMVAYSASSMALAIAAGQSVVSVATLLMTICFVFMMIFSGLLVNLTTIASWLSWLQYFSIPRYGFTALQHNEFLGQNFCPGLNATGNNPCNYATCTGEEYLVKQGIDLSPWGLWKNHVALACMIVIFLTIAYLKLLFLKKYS
Assay: JC-1 efflux inhibition dose-response, flow cytometry, Ig-MXP3 cells
Assay type: cell-based
Conditions: quotient of average ABCB1 IC50 and average ABCG2 IC50, JC-1 efflux assay
Reported ∼Fold G2 Selective values follow for various compounds
The response must be a number in fold with no trailing unit.

CC(C)(C)c1cc(N2CCN(C(=O)c3ccoc3)CC2)n2nc(-c3ccccc3)cc2n1 ... 0.5
CCCN(CCc1ccccc1)C(=O)[C@@H]1OC(C(=O)O)=C[C@H](O)[C@H]1NC(C)=O ... 2.7
O=C(c1cccnc1)N1CCN(c2cc(-c3ccccc3)nc3cc(-c4cccc(Cl)c4)nn23)CC1 ... 2.5
O=C(C1CCCCC1)N1CCN(c2cc(-c3ccccc3)nc3cc(-c4cccc(Cl)c4)nn23)CC1 ... 1.2
O=C(c1ccoc1)N1CCN(c2cc(-c3ccccc3F)nc3cc(-c4ccccc4)nn23)CC1 ... 10.0

Prompt: Please indicate ∼Fold G2 Selective recorded for O=C(c1ccncc1)N1CCN(c2cc(-c3ccccc3)nc3cc(-c4cccc(Cl)c4)nn23)CC1
Completion: 1.1

Prompt: Return ∼Fold G2 Selective (reported value) for this compound: COc1cccc(-c2cc(N3CCN(C(=O)c4ccoc4)CC3)n3nc(-c4ccccc4)cc3n2)c1
Completion: 83

Prompt: For COc1cccc(-c2cc3nc(-c4ccccc4)cc(N4CCN(C(=O)c5ccco5)CC4)n3n2)c1 , write its ∼Fold G2 Selective.
Completion: 3.4

Prompt: Tell me measured ∼Fold G2 Selective for O=C(c1ccoc1)N1CCN(c2cc(-c3cccnc3)nc3cc(-c4cccc(Cl)c4)nn23)CC1 please.
Completion: 2.9

Prompt: Specify ∼Fold G2 Selective for O=C(c1ccoc1)N1CCN(c2cc(-c3ccc(F)cc3)nc3cc(-c4cccc(Cl)c4)nn23)CC1 and stop.
Completion: 2.3

Prompt: Complete the entry with ∼Fold G2 Selective for COc1ccc(C(=O)N2CCN(c3cc(-c4ccccc4)nc4cc(-c5cccc(Cl)c5)nn34)CC2)cc1
Completion: 1.0

Prompt: Return ∼Fold G2 Selective (reported value) for this compound: O=C(c1ccccc1Cl)N1CCN(c2cc(-c3ccccc3)nc3cc(-c4cccc(Cl)c4)nn23)CC1
Completion: 1.4

# credit: paper PMC3623016
